# experimental.target: human 5-HT1A receptor (Homo sapiens, UniProt P08908)
# Construct: expressed in transfected cells
# Sequence (P08908 whole entry): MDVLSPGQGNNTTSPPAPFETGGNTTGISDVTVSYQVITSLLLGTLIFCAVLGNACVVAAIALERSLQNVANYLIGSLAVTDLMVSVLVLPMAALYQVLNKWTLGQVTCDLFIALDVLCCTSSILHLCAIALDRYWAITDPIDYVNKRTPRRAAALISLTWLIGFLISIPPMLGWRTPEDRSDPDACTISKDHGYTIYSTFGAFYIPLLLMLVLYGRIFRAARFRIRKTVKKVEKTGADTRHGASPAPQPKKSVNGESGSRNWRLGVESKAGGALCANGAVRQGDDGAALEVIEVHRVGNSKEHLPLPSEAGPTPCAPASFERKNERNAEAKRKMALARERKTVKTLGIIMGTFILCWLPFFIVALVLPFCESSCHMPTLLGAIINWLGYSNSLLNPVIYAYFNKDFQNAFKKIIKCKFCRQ
# assay.method.text: GPCR radioligand binding assay, [3H]-8-OH-DPAT displacement, HEK293 membranes
# test.parameters: 5-HT1A; replicate exp_1; read-out: %inh 5-HT1A exp_1
Listed here are molecules together with their documented inhibition at 10 µM.

// solved cases for inhibition at 10 µM follow
molecule	property	result
CC(=O)c1sc(-c2ccc(O)cc2)nc1C [E1]	inhibition at 10 µM	1.63%
c1cnc2cccnc2c1	inhibition at 10 µM	-9%
O=C1NC(=O)/C(=C\c2cccs2)N1	inhibition at 10 µM	7%
NC(=O)N1CCC(C(=O)O)CC1	inhibition at 10 µM	1.5%

Would you kindly look at the next entry?
(Q) Please look up its inhibition at 10 µM: "c1cnc2ncccc2c1"
(A) 24%

---

# experimental.target: human 5-HT6 receptor (Homo sapiens, UniProt P50406)
# Construct: expressed in transfected cells
# Sequence (P50406 whole entry): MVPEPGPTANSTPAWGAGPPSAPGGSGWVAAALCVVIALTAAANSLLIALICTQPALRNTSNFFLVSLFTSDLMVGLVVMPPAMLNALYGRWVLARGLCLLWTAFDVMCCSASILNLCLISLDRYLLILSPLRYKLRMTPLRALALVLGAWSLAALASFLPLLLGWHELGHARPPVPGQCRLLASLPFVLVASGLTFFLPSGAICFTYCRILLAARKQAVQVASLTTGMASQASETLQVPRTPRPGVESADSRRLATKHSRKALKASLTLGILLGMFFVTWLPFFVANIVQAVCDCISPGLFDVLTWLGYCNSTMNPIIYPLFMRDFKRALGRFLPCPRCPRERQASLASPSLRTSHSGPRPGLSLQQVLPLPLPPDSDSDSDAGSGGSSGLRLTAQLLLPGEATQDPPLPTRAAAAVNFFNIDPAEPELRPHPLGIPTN
# assay.method.text: GPCR radioligand binding assay, [3H]-LSD displacement, HEK293 membranes
# test.parameters: 5-HT6; replicate exp_1
The recorded %inh 5-HT6 exp_1 of each item maps onto one of these classes: bottom end (below 20%), midrange (20% to below 40%), top end (40% or more)

Recorded results for 2 molecules are shown here.
molecule	experimental.target	class.assignment
COc1cccc(NC2=NCCCCC2)c1 [E8]	human 5-HT6 receptor (Homo sapiens, UniProt P50406)	bottom end
Cn1nc(C(F)(F)F)cc1O [H6]	human 5-HT6 receptor (Homo sapiens, UniProt P50406)	bottom end

(Q) Using the reported %inh 5-HT6 exp_1, which band applies to O=c1[nH]c2c(s1)CCC2 [C10] ?
(A) top end

(Q) Using the reported %inh 5-HT6 exp_1, which band applies to COc1ccc(C2=CCNCC2)cc1 [G1] ?
(A) top end

(Q) Using the reported %inh 5-HT6 exp_1, which band applies to c1ccc2c(N3CCNCC3)ccnc2c1 [C4] ?
(A) top end

---

Listed here are compounds together with their documented 5-HT6 % Inhibition by plate position.
# experimental.target: human 5-HT6 receptor (Homo sapiens, UniProt P50406)
# Construct: expressed in transfected cells
# assay.method.text: GPCR radioligand binding assay, [3H]-LSD displacement, HEK293 membranes
# test.parameters: 10 µM
Write the answer as a number in %, unit excluded.

compound	5-HT6 % Inhibition by plate position [%]
Oc1cnc(-c2ccccc2)nc1	41
O=C(c1ccncc1)N1CCNCC1 [E2]	24
O=C(O)c1ccc(CN2CCOCC2)cc1	44
Cc1cnc(C(F)(F)F)cn1	32
COc1cccc(NC2=NCCCCC2)c1	14
Cc1ccc(CCNc2ccccc2)cn1	0
COc1ccc(CN2CCNCC2)cc1F	41
O=C(NC1CC1)c1ccccc1O	24

(Q) Please look up its 5-HT6 % Inhibition by plate position: "COC(=O)c1c(C)nc(C2CC2)[nH]c1=O"
(A) 41

(Q) Please look up its 5-HT6 % Inhibition by plate position: "O=C1NC2(CCCC2)Nc2ccccc21"
(A) 44

(Q) Please look up its 5-HT6 % Inhibition by plate position: "Cc1cc(N)no1"
(A) 37

(Q) Please look up its 5-HT6 % Inhibition by plate position: "CN(C)c1cc(CN)ccn1"
(A) 16

(Q) Please look up its 5-HT6 % Inhibition by plate position: "O=C1CCN(c2ccncc2)CC1"
(A) 7
